test system: OVCAR-3 ovarian; test: NCI tumour cell line growth inhibition, 48 h
Reported TGI by item:

MOLECULE	MEASUREMENT_UNITS	QUALIFYING_SIGN	TGI
CSc1nc(Nc2cccc(C(F)(F)F)c2)c2c(N)nn(C)c2n1	µM	>	100
Nc1nc(/C=C\c2ccc([N+](=O)[O-])s2)nc(N2CCCC2)n1	µM	=	12.2
O=C(Oc1ccccn1)c1cc2cc(CCl)ccc2oc1=O	µM	=	38.1
CN1C2CCC1CC(=CCOC(c1ccc(F)cc1)c1ccc(F)cc1)C2	µM	=	31.3
O=C(CC1(O)C(=O)N(Cc2ccccc2)c2ccc(F)cc21)c1ccc(C(=O)NCC2CCC3(CC2)OOC2(CCCCC2)OO3)cc1 (stereo unspecified)	µM	=	0.634
CCCCCCOC(=O)/C=C/[C@]1(CO)C/C(=C/CC(C(C)C)C(C)C)C(=O)O1	µM	=	29.8
COc1ccc2cc(/C=N/NC(=O)Nc3ccccc3)ccc2c1	µM	>	100
O=C1/C(=C/c2cccc(Cl)c2Cl)N=C(c2ccccc2)N1C1CC1	µM	>	50
OC1C#CCSCC#C/C=C\1 (stereo unspecified)	µM	>	100
COc1cc(Cn2c(-c3ccccc3)c(Cl)c3c2-c2oncc2CC3)cc(OC)c1	µM	=	22.9
COc1ccc(CC2NCCc3c2[nH]c2ccccc32)cc1 (stereo unspecified)	µM	>	100

###

test system: T-47D breast; experiment: NCI tumour cell line growth inhibition, 48 h
PROPERTY_LABEL: TGI (µM)

COMPOUND	TESTED_TARGET	PROPERTY_LABEL	QUALIFYING_SIGN	OBSERVED_RESULT
O=C(/C=C/c1cc2ccccc2o1)N1CCN(c2ccccn2)CC1	T-47D breast	TGI	>	100
CC1OC(OC2C(O)COC(OC3C(C)OC(OC4C(OC(=O)[C@]56CCC(C)(C)C[C@@H]5C5=CCC7[C@@]8(C)C[C@H](O)[C@H](OC9OC(CO)C(O)C(O)C9O)[C@@](C)(CO)[C@@H]8CC[C@@]7(C)[C@]5(C)CC6)OCC(O)C4O)C(O)C3OC3OCC(O)(CO)C3O)C2O)C(O)C(O)C1O (stereo partly drawn)	T-47D breast	TGI	=	51.1
Nc1nc(/C=C\c2ccc([N+](=O)[O-])s2)nc(N2CCCC2)n1	T-47D breast	TGI	=	14.1

###

List of TGI values.
tested on: SN12C renal; assay: NCI tumour cell line growth inhibition, 48 h
PROPERTY_LABEL: TGI

COMPOUND	PROPERTY_LABEL	OBSERVED_RESULT
CC(C)C(=O)OCC1OC(n2c(Br)nc3c(=O)[nH]c(N)nc32)C(OC(=O)C(C)C)C1OC(=O)C(C)C (stereo unspecified)	TGI	> 100 µM
CCOC(=O)C12OC(CCC1=O)C(C(=O)OC)=C2C(=O)OC (stereo unspecified)	TGI	> 10 µM
CSc1ncnc2c1ncn2CCC(=O)OC(C)(C)C	TGI	> 100 µM
NCCNc1c2c(c(NCCN)c3[nH]ccc13)C(=O)c1ccccc1C2=O	TGI	0.994 µM
CN(CC(=O)O)c1ncc2c(n1)CCCC2	TGI	> 100 µM
Nc1nc(/C=C\c2ccc([N+](=O)[O-])s2)nc(N2CCCC2)n1	TGI	20.5 µM

###

test system: K-562 leukemia; assay: NCI tumour cell line growth inhibition, 48 h
Where a SMILES comes first, the peptide text is derived from it. The star is where a group is joined. Cbz = O=C(OCc1ccccc1)*; CH2Cl = ClC*

COMPOUND	TGI
COc1cccc(C2=NC(C(C)C)CO2)c1 (configuration not stated)	> 100 µM
CCOC(=O)CC[C@H](NC(=O)[C@H](N)Cc1ccc(N(CCCl)CCCl)cc1)C(=O)OCC	> 100 µM
CC(C)CC(NC(=O)OCc1ccccc1)C(=O)NC(Cc1ccccc1)C(=O)CCl (stereo not drawn) (Cbz-Leu-Phe-CH2Cl; configuration not given here)	6.77 µM
OCC1OC(c2nc(C3=NCCCN3)cs2)C(O)C1O (configuration not stated)	> 100 µM
O=C(/C=C/c1cccc2ccccc12)c1ccccc1Cl	> 100 µM
COc1cc(Cn2c(-c3ccccc3)c(Cl)c3c2-c2oncc2CC3)cc(OC)c1	> 100 µM
C1CN2CCN3CCN4CCN1[P+]243	> 100 µM
Cn1c(=O)n(C2(C)C[Se]C2)c2ccccc21	> 100 µM
CN(CC(=O)O)c1ncc2c(n1)CCCC2	> 100 µM
CN1CCN(C(=S)N2CCN(C)CC2)CC1	> 100 µM
Cc1cc(S(=O)(=O)Nc2n[nH]c(N)n2)c(SCC(=O)O)cc1Cl	> 10 µM
O=C(CSc1nc2ccccc2nc1-c1ccccc1)Nc1ccc(F)cc1	> 100 µM
COC(=O)/C=C(\C)CC(O)/C=C(\C)CCC=C(C)C (configuration not stated)	> 100 µM
CC(C)(C)c1ccc(O)c(C(O)c2ccncc2)c1 (configuration not stated)	> 100 µM
NCc1ccccc1-c1c2nc(c(-c3ccccc3CN)c3ccc([nH]3)c(-c3ccccc3CN)c3nc(c(-c4ccccc4CN)c4ccc1[nH]4)C=C3)C=C2	35.5 µM
CCOC(=O)c1nnc2c(C(=O)OCC)c3ccccc3n2c1N	> 100 µM
N#C/C1=C(\N)CCSSSC1	> 100 µM
O=c1cnn(C/C=C/CO)c(=O)[nH]1	> 100 µM
COc1cc2c(C)cc(O)cc2c2cc(O)c(C)cc12	9.94 µM
CC(O)C1(CNc2cc(Cl)nc(N)n2)CCC1 (configuration not stated)	> 100 µM
C1=CC(N(c2ccccc2)C2C=CCCC2)CCC1 (configuration not stated)	> 100 µM
COc1cc(F)ccc1-c1ncnc(Nc2cccc(CS(C)(=N)=O)c2)n1 (configuration not stated)	> 100 µM

###

tested on: BT-549 breast; test: NCI tumour cell line growth inhibition, 48 h
Where a SMILES comes first, the peptide text is derived from it. The star is where a group is joined. Cbz = O=C(OCc1ccccc1)*; CH2Cl = ClC*
PROPERTY_LABEL: TGI

COMPOUND	TESTED_TARGET	PROPERTY_LABEL	OBSERVED_RESULT
CN(C)CCCC12CCCCC1=Nc1ccccc12 (centres undefined)	BT-549 breast	TGI	> 100 µM
Nc1ncnc2c1ncn2[C@@H]1C[C@@H]1CO	BT-549 breast	TGI	> 100 µM
COc1cc2c(cc1OCCCNC(=O)c1cccc3c(=O)c4ccccc4[nH]c13)N=C[C@@H]1CCCN1C2=O	BT-549 breast	TGI	< 0.0437 µM
COc1ccc(C(OCC2OC(n3cc(C)c(=O)[nH]c3=O)CC2n2cc(Cn3cc(Cl)c(=O)[nH]c3=O)nn2)(c2ccccc2)c2ccccc2)cc1 (centres undefined)	BT-549 breast	TGI	> 100 µM
COC(=O)c1ccccc1/C=C1\Cc2ccc(C)c(C)c2C1=O	BT-549 breast	TGI	> 100 µM
C/C=C(/C)C(=O)O[C@@H]1CCN2CC[C@H](COC(=O)/C(=C/C)CO)C12 (some centres undefined)	BT-549 breast	TGI	> 100 µM
NNC(=O)c1n[nH]nc1C(=O)NN	BT-549 breast	TGI	29.3 µM
C#C[C@]1(O)CCC2C3CCc4cc(O)ccc4C3CC[C@@]21C (some centres undefined)	BT-549 breast	TGI	18.4 µM
CN1CCN(C(=S)N2CCN(C)CC2)CC1	BT-549 breast	TGI	> 100 µM
Nc1nc(SC/C=C/c2ccccc2)c2[nH]cnc2n1	BT-549 breast	TGI	> 100 µM
N#CCCN(C(=O)Nc1ccccc1)[C@H]1CCCC[C@@H]1N(C(=O)Nc1ccccc1)c1ccccc1	BT-549 breast	TGI	> 100 µM
CC(C)CC(NC(=O)OCc1ccccc1)C(=O)NC(Cc1ccccc1)C(=O)CCl (stereo not drawn) (Cbz-Leu-Phe-CH2Cl; configuration not given here)	BT-549 breast	TGI	6.16 µM
Cn1c(=O)c2c(nc(Cc3ccccc3)n2CC(=O)O)n(C)c1=O	BT-549 breast	TGI	> 100 µM
Cn1cc(NC(=O)Nc2cc(C(=O)Nc3cc(C(=O)Nc4ccc(S(=O)(=O)O)c5cc(S(=O)(=O)O)ccc45)n(C)c3)n(C)c2)cc1C(=O)Nc1cc(C(=O)Nc2ccc(S(=O)(=O)O)c3cc(S(=O)(=O)O)ccc23)n(C)c1	BT-549 breast	TGI	> 100 µM
CN(C)CC[PH+](c1ccccc1)c1ccccc1.CN(C)CC[PH+](c1ccccc1)c1ccccc1.[Cl-].[Pd+2]	BT-549 breast	TGI	> 100 µM
COc1ccc2cc(/C=N/NC(=O)Nc3ccccc3)ccc2c1	BT-549 breast	TGI	> 100 µM
OC1C#CCSCC#C/C=C\1 (centres undefined)	BT-549 breast	TGI	> 100 µM
Cc1ncc(C(=O)Nc2ccc(CN3CCN(C)CC3)c(C(F)(F)F)c2)cc1C#Cc1cnc(N)c2ccncc12	BT-549 breast	TGI	8.33 µM
O=c1cc(-c2cccc3ccccc23)[nH]c2ncccc12	BT-549 breast	TGI	> 100 µM

Recorded values, source PubChem BioAssay (NCI).
